- TGT: Proteasome subunit beta type-8 (Homo sapiens, UniProt P28062)
- Sequence (P28062 whole entry): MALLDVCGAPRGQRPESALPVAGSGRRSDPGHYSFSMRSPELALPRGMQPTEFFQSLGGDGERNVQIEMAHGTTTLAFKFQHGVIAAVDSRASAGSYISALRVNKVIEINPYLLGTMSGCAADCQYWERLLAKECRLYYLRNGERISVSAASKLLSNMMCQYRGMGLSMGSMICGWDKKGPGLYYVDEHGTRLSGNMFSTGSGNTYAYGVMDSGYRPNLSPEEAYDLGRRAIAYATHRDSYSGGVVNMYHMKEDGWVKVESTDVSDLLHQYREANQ
- EXPERIMENT_SUMMARY: Inhibition of human beta5 20S immunoproteasome using Ac-ANW-AMC as substrate
READOUT_KIND: IC50 (nM)
// units = nM; emit number, no label

MOL_SMILES | READOUT_KIND | RESULT_VALUE
Cc1ccc(S(=O)(=O)N[C@@H](CC(=O)NC(C)(C)C)C(=O)NCCNC(=O)c2ccccc2F)cc1 | IC50 | 169
COc1cccc(C(=O)NCCNC(=O)[C@H](CC(=O)NC(C)(C)C)NS(=O)(=O)c2ccc(C)cc2)c1 | IC50 | 38

Kindly review the next molecule as well.
Task: Can you look up IC50 on Proteasome subunit beta type-8 (Homo sapiens, UniProt P28062) for Cc1ccc(S(=O)(=O)N[C@@H](CC(=O)NC(C)(C)C)C(=O)NCCNC(=O)c2cc(-c3ccccc3F)ccc2F)cc1 ?
Result: 4

====

Overview of reported selectivity ratio across a group of molecules:
- Test system: beta5 subunit of human 20S immunoproteasome
- EXPERIMENT_SUMMARY: Selectivity ratio of IC50 for human beta5 20S immunoproteasome to IC50 for Plasmodium falciparum 20S proteasome beta5 subunit
- Type: toxicity
- TEST_CONTEXT: read-out: Ratio IC50
Answer with the value's number alone.

MOL_SMILES | selectivity ratio
COc1cc(OC)cc(C(=O)NCCNC(=O)[C@H](CC(=O)NC(C)(C)C)NS(=O)(=O)c2ccc(C)cc2)c1 | 2.5
Cc1ccc(S(=O)(=O)N[C@@H](CC(=O)NC(C)(C)C)C(=O)NCCNS(=O)(=O)c2ccccc2)cc1 | 0.2
Cc1ccc(S(=O)(=O)N[C@@H](CC(=O)NC(C)(C)C)C(=O)NCCNC(=O)c2cccc(C(F)(F)F)c2)cc1 | 3.1

Task: Please report the recorded selectivity ratio for Cc1ccc(S(=O)(=O)N[C@@H](CC(=O)NC(C)(C)C)C(=O)NCCNC(=O)c2cc(Cl)ccn2)cc1 .
Result: 3.9

Task: Fill in: selectivity ratio of Cc1ccc(S(=O)(=O)N[C@@H](CC(=O)NC(C)(C)C)C(=O)NCCNC(=O)c2ccc(F)cc2)cc1 is ___
Result: 1.5

Task: For the molecule shown here, Cc1ccc(S(=O)(=O)N[C@@H](CC(=O)NC(C)(C)C)C(=O)NCCNC(=O)c2ccc(F)c(F)c2)cc1 , give the reported selectivity ratio.
Result: 1.5

Task: State the recorded selectivity ratio for this entry: Cc1ccc(S(=O)(=O)N[C@@H](CC(=O)NC(C)(C)C)C(=O)NCCNC(=O)c2ccccn2)cc1
Result: 1.9

Task: GET /values?readout=selectivity ratio&item= Cc1ccc(S(=O)(=O)N[C@@H](CC(=O)NC(C)(C)C)C(=O)NCCNC(=O)c2cccc(O)c2)cc1
Result: 21

====

- TGT: Proteasome subunit beta type-8 (Homo sapiens)
- Sequence (P28062 whole entry): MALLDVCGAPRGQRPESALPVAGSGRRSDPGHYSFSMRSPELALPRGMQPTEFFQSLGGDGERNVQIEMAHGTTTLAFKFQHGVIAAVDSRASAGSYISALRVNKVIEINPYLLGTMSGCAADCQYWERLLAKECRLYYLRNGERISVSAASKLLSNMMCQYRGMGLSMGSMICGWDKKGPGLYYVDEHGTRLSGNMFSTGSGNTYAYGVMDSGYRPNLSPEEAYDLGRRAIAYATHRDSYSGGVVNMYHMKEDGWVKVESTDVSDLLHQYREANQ
- EXPERIMENT_SUMMARY: Inhibition of human beta5 20S immunoproteasome using Ac-ANW-AMC as substrate
READOUT_KIND: IC50 (nM)
Write it as a number; the unit nM goes unstated.

MOL_SMILES | READOUT_KIND | MEASUREMENT_UNIT | RESULT_VALUE
Cc1ccc(S(=O)(=O)N[C@@H](CC(=O)NC(C)(C)C)C(=O)NCCNC(=O)c2ccc(Cl)cc2)cc1 | IC50 | nM | 38

Task: Would you kindly share the measured IC50 for COc1cc(OC)cc(C(=O)NCCNC(=O)[C@H](CC(=O)NC(C)(C)C)NS(=O)(=O)c2ccc(C)cc2)c1 ?
Result: 9970

Task: What IC50 value was documented for this compound, Cc1ccc(S(=O)(=O)N[C@@H](CC(=O)NC(C)(C)C)C(=O)NCCNC(=O)c2ccccc2Cl)cc1 ?
Result: 1400

Task: Look up IC50: Cc1ccc(S(=O)(=O)N[C@@H](CC(=O)NC(C)(C)C)C(=O)NCCNC(=O)c2cccc(C(F)(F)F)c2)cc1
Result: 763

Task: Which value of IC50 has been reported for Cc1ccc(S(=O)(=O)N[C@@H](CC(=O)NC(C)(C)C)C(=O)NCCNC(=O)c2cc(Cl)ccc2Cl)cc1 in the records?
Result: 5650

Task: Suppose we examine the compound Cc1ccc(S(=O)(=O)N[C@@H](CC(=O)NC(C)(C)C)C(=O)NCCNC(=O)c2ccccc2)cc1 ; what IC50 value has been reported?
Result: 100

Task: Need IC50, item Cc1ccc(S(=O)(=O)N[C@@H](CC(=O)NC(C)(C)C)C(=O)NCCNS(=O)(=O)c2ccccc2)cc1
Result: 2890

Task: Entry C#Cc1cccc(C(=O)NCCNC(=O)[C@H](CC(=O)NC(C)(C)C)NS(=O)(=O)c2ccc(C)cc2)c1 has what IC50?
Result: 112

Task: I have this compound here, Cc1ccc(S(=O)(=O)N[C@@H](CC(=O)NC(C)(C)C)C(=O)NCCNC(=O)c2c(O)cccc2F)cc1 , and I need its recorded IC50.
Result: 72.7

====

- System: beta5 subunit of human 20S immunoproteasome
- EXPERIMENT_SUMMARY: Selectivity ratio of IC50 for human beta5 20S immunoproteasome to IC50 for Plasmodium falciparum 20S proteasome beta5 subunit
- Type: toxicity
- TEST_CONTEXT: read-out: Ratio IC50
READOUT_KIND: selectivity ratio
Form rule: numeric answer, no unit written next to it.

Example entries begin here.
MOL_SMILES | RESULT_VALUE
Cc1ccc(S(=O)(=O)N[C@@H](CC(=O)NC(C)(C)C)C(=O)NCCNC(=O)NCc2ccccc2)cc1 | 0.85
COc1cccc(C(=O)NCCNC(=O)[C@H](CC(=O)NC(C)(C)C)NS(=O)(=O)c2ccc(C)cc2)c1 | 4.3
Cc1ccc(S(=O)(=O)N[C@@H](CC(=O)NC(C)(C)C)C(=O)NCCNC(=O)c2cccc(C#N)c2)cc1 | 12

Task: Value lookup for selectivity ratio; key = C#Cc1cccc(C(=O)NCCNC(=O)[C@H](CC(=O)NC(C)(C)C)NS(=O)(=O)c2ccc(C)cc2)c1
Result: 24

====

- TGT: Proteasome Macropain subunit MB1 (Homo sapiens, UniProt P28074)
- Sequence (P28074 whole entry): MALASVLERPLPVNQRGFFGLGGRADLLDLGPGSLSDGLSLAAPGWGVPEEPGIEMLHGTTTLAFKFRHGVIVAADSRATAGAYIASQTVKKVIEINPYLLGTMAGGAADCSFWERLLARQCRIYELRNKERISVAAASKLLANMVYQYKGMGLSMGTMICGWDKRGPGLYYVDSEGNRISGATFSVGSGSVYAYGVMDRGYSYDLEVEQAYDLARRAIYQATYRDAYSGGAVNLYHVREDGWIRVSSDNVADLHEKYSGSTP
- EXPERIMENT_SUMMARY: Inhibition of human beta5 20S constitutive proteasome using suc-LLVY-AMC as substrate
READOUT_KIND: pIC50
Expect pIC50 as a plain number equal to -log10 of the molar concentration.

Example entries begin here.
MOL_SMILES | pIC50
Cc1ccc(S(=O)(=O)N[C@@H](CC(=O)NC(C)(C)C)C(=O)NCCNC(=O)c2cccc(C(C)C)c2)cc1 | 5.04
Cc1ccc(S(=O)(=O)N[C@@H](CC(=O)NC(C)(C)C)C(=O)NCCNC(=O)c2cc(C)ccc2F)cc1 | 4.92

Switching to the query record.
Task: Any idea what its pIC50 is? The compound is Cc1ccc(S(=O)(=O)N[C@@H](CC(=O)NC(C)(C)C)C(=O)NCCNC(=O)NCc2ccccc2)cc1
Result: 4.33

====

- Tested on: beta5 subunit of human 20S constitutive proteasome
- EXPERIMENT_SUMMARY: Selectivity ratio of IC50 for human beta5 20S constitutive proteasome to IC50 for Plasmodium falciparum 20S proteasome beta5 subunit
- Assay type: toxicity
- TEST_CONTEXT: read-out: Ratio IC50
Think of 60 as a floor: if selectivity ratio stands on it or above, it is label 1; beneath it, label 0.

// below: answered molecules
MOL_SMILES | LABEL_CLASS
Cc1ccc(S(=O)(=O)N[C@@H](CC(=O)NC(C)(C)C)C(=O)NCCNC(=O)c2cc(C)ccc2F)cc1 | label 1
Cc1ccc(S(=O)(=O)N[C@@H](CC(=O)NC(C)(C)C)C(=O)NCCNC(=O)c2cc(Cl)ccc2Cl)cc1 | label 1
Cc1ccc(S(=O)(=O)N[C@@H](CC(=O)NC(C)(C)C)C(=O)NCCNC(=O)c2ccc(F)cc2)cc1 | label 0
Cc1ccc(S(=O)(=O)N[C@@H](CC(=O)NC(C)(C)C)C(=O)NCCNC(=O)c2c(O)cccc2F)cc1 | label 0
Cc1ccc(S(=O)(=O)N[C@@H](CC(=O)NC(C)(C)C)C(=O)NCCNC(=O)c2ccccc2F)cc1 | label 0

Task: Form field: selectivity ratio at least 60? Entry: Cc1ccc(S(=O)(=O)N[C@@H](CC(=O)NC(C)(C)C)C(=O)NCCNC(=O)c2cccc(C(F)(F)F)c2)cc1
Result: label 1

Task: Reported selectivity ratio reaches at least 60 for COc1cccc(C(=O)NCCNC(=O)[C@H](CC(=O)NC(C)(C)C)NS(=O)(=O)c2ccc(C)cc2)c1 ?
Result: label 0
